# TARGET ENTITY: CXCR4 D97E (human, UniProt P61073-1 1-352, D97E)
# Sequence (P61073 whole entry D97E): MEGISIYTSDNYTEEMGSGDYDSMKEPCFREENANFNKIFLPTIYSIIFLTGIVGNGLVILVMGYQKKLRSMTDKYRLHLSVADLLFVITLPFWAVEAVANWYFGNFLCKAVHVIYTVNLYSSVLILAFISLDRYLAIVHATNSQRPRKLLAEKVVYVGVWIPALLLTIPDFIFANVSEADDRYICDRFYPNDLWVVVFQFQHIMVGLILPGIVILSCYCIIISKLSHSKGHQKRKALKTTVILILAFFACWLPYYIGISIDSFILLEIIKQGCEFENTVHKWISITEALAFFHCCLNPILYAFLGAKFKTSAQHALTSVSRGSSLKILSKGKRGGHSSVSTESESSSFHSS
# PROCEDURE DETAILS: FACS
pIC50: −log10 of the molar value.
REPORTED PROPERTY: pIC50

A: ILRWSRKLPCVS (source: synthetic peptide (Fmoc solid-phase synthesis, HPLC-purified)) [EPI-X4 JM#21]
B: IVRWSKKVPCVS (also called EPI-X4 WSC02; source: synthetic peptide (Fmoc solid-phase synthesis, HPLC-purified)) [WSC02]
Enquiry: Lab note: check whether A or B shows the higher recorded pIC50. // return label of chosen record
Return: A
(A: 5.72, B: 5.02)
